system: MS2 coat protein; assay: apparent KD of MS2 coat protein; designed switch direction (-1 OFF switch, 1 ON switch): -1; higher = weaker reporter binding; details: Eterna round: R95; input ligand: microRNA oligo, concentration not stated
endpoint: apparent KD of MS2 coat protein (nM)

- ordered residues: "AAAAGGUGAGGAUAUUCGGCGCCGGGAAGGUUGGUGCGGAUGAAGAAGGCACAUGAGGAUCACCCAUGUAAUAA [Excls4-I] (puzzle: Exclusion 4)"
  reading: 43.5
- ordered residues: "CUUUUGUGAGGAUAUCAUUAGUAAAAAAAUAAAAUUACUACUGAGAAGGCACAUGAGGAUCACCCAUGUUCCUC [salish99_ex4_r3_034] (puzzle: Exclusion 4)"
  reading: 37.6
- ordered residues: "ACGAAACAUGAGGAUCACCCAUGUGAGGAUAUGUAAAUAGUAAACAAAUAAGAAAUAAACAGAAGGCACACAGG [JR_Exclusion1_Sub004] (puzzle: Exclusion 1)"
  reading: 26.3
- ordered residues: "GAAAAGGUAGGAUAUACGAAUAAAAAGGGUAGAAAAAAAACACAUGAGGAUCACCCAUGUAGAAGGACCAAAAG [salish99_ex2_r3_085] (puzzle: Exclusion 2)"
  reading: 25
- ordered residues: "GAGGUGUUAGGAUAUCGGAGAUGGAGAAGAACGGGAUGAGCCGAGAAGGAACAUGAGGAUCACCCAUGUAGGUG [JR_Exclu4_Sub031] (puzzle: Exclusion 4)"
  reading: 420
- ordered residues: "ACAAGCUUUUUGCAUCAAGCAUUAAAGUCUGUGAUCGUAACAUGAGGAUCACCCAUGUAAGUUUUAUGACGUCUUAU [JR_SV3TOV2_Sub096] (puzzle: Sensor v3, turn-off variant 2)"
  reading: 39.8
- ordered residues: "UUUGUUGUUGUGAGGAUAUACUGUUUGUUUUGUUUGUAGAAGGUACAUGAGGAUCACCCAUGUUGGUUGUUUUU [JR_BME4_Sub030] (puzzle: Brourd's mod of Exclusion 4)"
  reading: 24.3
- ordered residues: "AAUCCACAUGAGGAUCACCCAUGUCAGGAUAUCGCGCGCGCGUUUUCGGUCUUGCGCGCGAGAAGGGACGGCUG (puzzle: Exclusion 1)"
  reading: 22.9
- ordered residues: "UACUUCCGAGGAUAUACAUGAGGAUCACCCAUGUGCUUCAGCAUUGAAAGAUGCAUGGGUAGAAGGCGGUAGUU [LRO-Excl3-18] (puzzle: Exclusion 3)"
  reading: 297
- ordered residues: "UAAUAAAGUGUGAGGAUAUGCUGGUCCAUAGAUCAGCAGAAGGCACAUGAGGAUCACCCAUGUAAUAUAUAAAU [Mat - Exclusion 4 - JL Mod - D57] (puzzle: Brourd's mod of Exclusion 4)"
  reading: 27.5
- ordered residues: "GGUUGACAUGAGGAUCACCCAUGUGAGGAUAUGCGAGAGAAAAAAGUGAGGAAGAAAAGCAGAAGGCGCUGUCG [salish99-ex1_r3_003] (puzzle: Exclusion 1)"
  reading: 22.4
